# Target system: SpHof1-2
# Test protocol: SPOT peptide array binding signal intensity (averaged, normalized) (arbitrary units (background-subtracted, floor 0; scale differs between SH3 domains)); higher = stronger binding of the SH3 domain to the peptide
Label scheme for SPOT peptide array binding signal intensity: lower than 5 is FALSE, 5 and above is TRUE.

query: API: above_or_equal(metric=SPOT peptide array binding signal intensity, cutoff=5) for item "GRLRPKRIAPWHLIQ"
result: FALSE

query: Hi team, for "SSSSSPPPLPTRRDH" , is the recorded SPOT peptide array binding signal intensity at or above 5?
result: TRUE

query: Could you please find out whether "VPVAPPPPPASLGQS" has SPOT peptide array binding signal intensity that meets 5 or exceeds it?
result: FALSE

query: State whether the measured SPOT peptide array binding signal intensity reaches 5, counting equality as reaching it, for "APPPPPRRATPEKKP"
result: TRUE

query: API: above_or_equal(metric=SPOT peptide array binding signal intensity, cutoff=5) for item "QRKSLRRPTLSKPAV"
result: TRUE

query: In plain terms: is recorded SPOT peptide array binding signal intensity at least 5 for "VQKRKLPLPGSIASA" ?
result: TRUE

query: Confirm if SPOT peptide array binding signal intensity reported for the binder "TEVPIPRRPPPPQAA" is 5 or above.
result: FALSE

query: API: above_or_equal(metric=SPOT peptide array binding signal intensity, cutoff=5) for item "ANNQGPPNLPARDKS"
result: TRUE

query: # check: SPOT peptide array binding signal intensity of "DGNEEKPLLPTRPNK" is greater than or equal to 5
result: FALSE

query: Decide: is the reported value of SPOT peptide array binding signal intensity for "SRYRRPLTLLLLKPF" equal to or greater than 5?
result: TRUE

query: Can "KKEKKPPKIPKKVYT" be said to have SPOT peptide array binding signal intensity at or above 5?
result: FALSE

query: Entry "AAAPKHAPPPVPNET" : is its SPOT peptide array binding signal intensity no less than 5?
result: FALSE

query: Does "MPAPPPPPPPPPGAF" have a reported SPOT peptide array binding signal intensity of at least 5?
result: TRUE

query: Can "NVLRKILEIPLHSFS" be said to have SPOT peptide array binding signal intensity at or above 5?
result: FALSE
